Experiment: Clearance in beagle dog at 0.5 mg/kg, iv
Format: ADME, organism-based, Canis lupus familiaris
Set-up: dose 0.5 mg/kg, route intravenous
Details: in vivo
Property: clearance
# number then unit; no other words

input: Value lookup for clearance; key = "CC1(C)Oc2ncnc(N)c2N=C1c1ccc([C@H]2CC[C@H](CC(=O)O)CC2)cc1"
output: 11 mL/min/kg

---

Experiment: Volume of distribution at steady state in cynomolgus monkey at 0.5 mg/kg, iv
Assay type: ADME, organism-based, Macaca fascicularis
Parameters: dose 0.5 mg/kg, route intravenous
Settings: in vivo, read-out: Vdss
Property: Vd

input: Value lookup for Vd; key = "CC1(C)Oc2nc(C(F)(F)F)nc(N)c2N=C1c1ccc2c(c1)CC[C@]21CC[C@@H](CC(=O)O)CC1"
output: 0.44 L/kg

The reported numbers originate from ChEMBL document CHEMBL3232847.
